fraction unbound for assorted molecules
assay type: in vitro ADME; settings: bovine, in vitro proliferation assay medium with 5% FBS
observable: fraction unbound

C#C[C@]1(O)CC[C@H]2[C@@H]3CCc4cc(O)ccc4[C@H]3CC[C@@]21C; 0.72
COc1ccc(C(c2ccc(OC)cc2)C(Cl)(Cl)Cl)cc1; 0.73
CC/C(=C(/CC)c1ccc(O)cc1)c1ccc(O)cc1; 0.74
O=c1oc2cc(O)ccc2c2oc3cc(O)ccc3c12; 0.69
O=c1c(-c2ccc(O)cc2)coc2cc(O)cc(O)c12; 0.8

----------
assay: Rapid equilibrium dialysis, fraction unbound in rat serum; type: in vitro ADME; details: serum
Consider the following compounds and their measured fraction unbound readings.
observable: fraction unbound

CC/C(=C(/CC)c1ccc(O)cc1)c1ccc(O)cc1 [DES, Diethylstilbestrol]; 0.48
COc1ccc(C(c2ccc(OC)cc2)C(Cl)(Cl)Cl)cc1 [MXC, methoxychlor]; 0.27
O=c1oc2cc(O)ccc2c2oc3cc(O)ccc3c12 [COU, coumestrol]; 0.35
O=c1c(-c2ccc(O)cc2)coc2cc(O)cc(O)c12 [GEN, genistein]; 0.07
C#C[C@]1(O)CC[C@H]2[C@@H]3CCc4cc(O)ccc4[C@H]3CC[C@@]21C [EE2, 17α-ethinylestradiol]; 0.46

----------
assay: Rapid equilibrium dialysis, fraction unbound in rat serum; type: in vitro ADME; conditions: rat serum
Think of 80% as a floor: if recovery stands on it or above, it is y; beneath it, n.

O=c1c(-c2ccc(O)cc2)coc2cc(O)cc(O)c12; y
CC/C(=C(/CC)c1ccc(O)cc1)c1ccc(O)cc1; n
COc1ccc(C(c2ccc(OC)cc2)C(Cl)(Cl)Cl)cc1; n

----------
format: in vitro ADME; conditions: bovine, in vitro MCF-7 proliferation assay medium containing 5% FBS
observable: recovery (%)

O=c1c(-c2ccc(O)cc2)coc2cc(O)cc(O)c12 [GEN, genistein]; 88
O=c1oc2cc(O)ccc2c2oc3cc(O)ccc3c12 [COU, coumestrol]; 79
COc1ccc(C(c2ccc(OC)cc2)C(Cl)(Cl)Cl)cc1 [MXC, methoxychlor]; 77
CC/C(=C(/CC)c1ccc(O)cc1)c1ccc(O)cc1 [DES, Diethylstilbestrol]; 79
C#C[C@]1(O)CC[C@H]2[C@@H]3CCc4cc(O)ccc4[C@H]3CC[C@@]21C [EE2, 17α-ethinylestradiol]; 86
